Data origin, for the record: PubChem BioAssay (EPA / NIEHS)

I'd appreciate it if you could supply AC50 values for the items below.
tested on: SRD5A2 (gene 6716); experiment: CCTE_Deisenroth_5AR_NBTE_ratio: CCTE's 5alpha-reductase NanoBRET Target Engagement Assay - Ratio, Deisenroth Lab (AID 2284322); conditions: actives raise or lower the signal
Calls of active or inactive are those of the source. The calls were made as follows: active = hit-call score of the fitted dose curve at least 0.9, where 1 is the maximum; inactive = score below 0.9.

>>> df
                               smiles_input  assay_endpoint  observed_measurement
0                     Nc1ccccc1[N+](=O)[O-]            AC50        50 µM (active)
1  Cc1cc(S(=O)(=O)O)ccc1N=Nc1c(O)ccc2ccccc12            AC50        25 µM (active)
2            Nc1ccc(N)c2c1C(=O)c1ccccc1C2=O            AC50      2.08 µM (active)

# evaluate next
Problem: Which AC50 value belongs to `O=C(Nc1ccc2c(O)c(N=Nc3ccc(N=Nc4ccc(S(=O)(=O)O)cc4)cc3)c(S(=O)(=O)O)cc2c1)c1ccccc1` ?
Solution: 11.6 µM (active)

====

read-out: Human Leukocyte Antigen - DR isotype (HLADR), HLA-DRA (gene 3122); assay: BSK_CASM3C_HLADR: BioMAP Diversity Plus: CASM3C Assay for Human Leukocyte Antigen - DR isotype (HLADR) Biomarker Activity (AID 2283043); conditions: primary human coronary artery smooth muscle cells; actives raise or lower the signal;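 also: cell-surface HLA-DR protein level quantified by ELISA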
Active and inactive are the calls of the source. Rule for the calls: active = hit-call score of the fitted dose curve at least 0.9, where 1 is the maximum; inactive = score below 0.9.
Choose the fitting class; nothing outside yes (active), no (inactive) is accepted.

Look over these answered cases.
In [3]: df
Out[3]:
                     molecule  label_class
0  CS(=O)(=O)OCCCCOS(C)(=O)=O           no
1                 O=CN1CCOCC1           no

Problem: Answer briefly: the call reported for `Cc1cc(CCC(=O)OCCOCCOCCOC(=O)CCc2cc(C)c(O)c(C(C)(C)C)c2)cc(C(C)(C)C)c1O` in this assay.
Solution: no

Problem: Answer briefly: the call reported for `CCCCN(CCCC)C(=O)N(CCCC)CCCC` in this assay.
Solution: yes

Problem: Answer briefly: the call reported for CCC(C)c1cc([N+](=O)[O-])cc([N+](=O)[O-])c1OC(=O)OC(C)C (stereo not given) in this assay.
Solution: yes

Problem: Answer briefly: the call reported for `CCN(CC)C(=O)N(CC)CC` in this assay.
Solution: no

Problem: Answer briefly: the call reported for `c1ccc2cc(Nc3ccc(Nc4ccc5ccccc5c4)cc3)ccc2c1` in this assay.
Solution: no

Problem: Answer briefly: the call reported for `COc1ccc(OC)c(N=Nc2c(O)ccc3ccccc23)c1` in this assay.
Solution: no

Problem: Answer briefly: the call reported for `O=C1OC[C@H](Cc2cccc(O)c2)[C@H]1Cc1cccc(O)c1` in this assay.
Solution: no

Problem: Answer briefly: the call reported for `CSCCC=O` in this assay.
Solution: no

====

experiment: ATG_XTT_Cytotoxicity: Cytotoxicity Assessment in the Attagene TRANS-FACTORIAL HepG2 Assay (AID 2283584)
Results filed as inconclusive are left out. Calls of active or inactive are those of the source. How the source made its calls: active means hit-call score of the fitted dose curve at least 0.9, where 1 is the maximum; inconclusive means response in the unintended direction; inactive means score below 0.9.
Choose the fitting class; nothing outside Yes (active), No (inactive) is accepted.

Look over these answered cases.
              compound  label_class
0              CCCCOCC           No
1               CCNCCO           No
2              CCCOCCO           No
3      CCCCCCOC(=O)CCC           No
4   CC(=O)OCCCc1ccccc1           No
5  CCN(CCN)c1cccc(C)c1           No

Problem: Answer briefly: the call reported for `C=CC(=O)OCCC#N` in this assay.
Solution: No

Problem: Answer briefly: the call reported for `O=CCc1ccccc1` in this assay.
Solution: No

Problem: Answer briefly: the call reported for `CCOc1ccc(N=Nc2ccc(C=Cc3ccc(N=Nc4ccc(OCC)cc4)cc3S(=O)(=O)O)c(S(=O)(=O)O)c2)cc1` in this assay.
Solution: No

Problem: Answer briefly: the call reported for `CCCCCCCCCCCCN1CCCCCC1=O` in this assay.
Solution: Yes

Problem: Answer briefly: the call reported for `CC/C=C\CC/C=C/CO` in this assay.
Solution: No
